Data provenance is paper PMC10424242.

# Target Or Test System: recombinant P. falciparum PMX (Plasmodium falciparum)
# Sequence (Q8IAS0 222-573): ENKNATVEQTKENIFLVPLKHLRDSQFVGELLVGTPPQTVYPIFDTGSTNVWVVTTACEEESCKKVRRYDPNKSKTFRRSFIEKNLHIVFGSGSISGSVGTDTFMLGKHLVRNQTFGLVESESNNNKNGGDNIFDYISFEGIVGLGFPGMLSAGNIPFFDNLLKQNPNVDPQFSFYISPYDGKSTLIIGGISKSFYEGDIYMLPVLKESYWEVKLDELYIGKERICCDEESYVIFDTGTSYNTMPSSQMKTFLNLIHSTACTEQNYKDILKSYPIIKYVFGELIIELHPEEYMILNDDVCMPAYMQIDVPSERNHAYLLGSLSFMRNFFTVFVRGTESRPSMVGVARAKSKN
# Assay Name: Recombinant P. falciparum PMX inhibition assay (fluorogenic substrate Rh2N)
# Format: biochemical
Just a reminder that ties go to no (0): only IC50 strictly below 9 nM counts as yes (1).

* COc1cccc(C(C)(C)NC[C@@H](O)[C@@H]2Cc3cccc(c3)OCCCCN(C)C(=O)c3cccc(c3)C(=O)N2)c1 [7c] | no (0)
* COc1cccc(C(C)(C)NC[C@@H](O)[C@@H]2Cc3cccc(c3)OCCCCN(CCN(C)C)C(=O)c3cccc(c3)C(=O)N2)c1 [7f] | yes (1)
* COc1cccc(C(C)(C)NC[C@@H](O)[C@@H]2Cc3cccc(c3)OCCCCN(CCC(F)(F)F)C(=O)c3cccc(c3)C(=O)N2)c1 [7d] | yes (1)
* COc1cccc(C(C)(C)NC[C@@H](O)[C@@H]2Cc3cccc(c3)OCCCCNC(=O)c3cccc(c3)C(=O)N2)c1 [7b] | yes (1)
* COc1cccc(C(C)(C)NC[C@@H](O)[C@@H]2Cc3cccc(c3)OCCCCN(CC(C)(C)C)C(=O)c3cccc(c3)C(=O)N2)c1 [7e] | yes (1)
